assay: chemical genetic growth profiling, strain panel (AID 1159580);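 also: tested at 20 µM; growth read once vehicle control cultures reached saturation at 30 °C; 1 = growth at the plate median or of vehicle wells; lower values mean less growth of the strain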; details: S. cerevisiae deletion strains, growth OD, locus YEL037C, strain rad23, active compounds read low
Among all 5,500 compounds or so, about 2,000 (36%) were called active. Not shown: some 18% with an inconclusive outcome. This is one part of the list.
The following molecules are listed with their measured normalized growth values.
Please reply with the number alone, leaving off any unit.

These recorded examples may help you get a feel for the data.
molecule | experimentalValue
O=C(O)c1ccccc1 | 0.988
COc1cc(C/C=C/c2ccccc2)c(OC)cc1O | 0.958
CN(C)CCCN1c2ccccc2Sc2ccc(C(F)(F)F)cc21 | 1.01
NC(=O)c1cccnc1 | 0.987
CO[C@H]1CC(O[C@@H]2/C(C)=C/C[C@@H]3C[C@@H](C[C@]4(CC[C@H](C)[C@@H](C5CCCCC5)O4)O3)OC(=O)[C@@H]3C=C(C)/C(=N\O)[C@H]4OC/C(=C\C=C\[C@@H]2C)[C@]43O)O[C@@H](C)C1O (some centres not stated) | 1.02
O=C(O)c1cccnc1 | 0.977

*Q* Given the molecule "O=C(NCO)c1cccnc1" , what is its reported normalized growth?
*A* 1.02

Attribution: PubChem BioAssay AID1159580
